Data origin: ChEMBL document CHEMBL2150970

# Tested on: CAMA-1
# assay comment: Cytotoxicity against human CAMA1 cells after 3 days by SRB assay
# Assay type: functional, cell-based
# condition notes: CAMA-1, 72 h
measurement name: IC50

Suppose we examine the molecule "CC1(C)CCC(C)(C)c2cc(C(=O)/C=C/c3c[nH]c4ccccc34)ccc21" ; what IC50 value has been reported?
< 10 nM
